The measured values listed here are drawn from ChEMBL document CHEMBL5257023.

# Target Under Test: CYP1A1 (Homo sapiens, UniProt P04798)
# Sequence (P04798 whole entry): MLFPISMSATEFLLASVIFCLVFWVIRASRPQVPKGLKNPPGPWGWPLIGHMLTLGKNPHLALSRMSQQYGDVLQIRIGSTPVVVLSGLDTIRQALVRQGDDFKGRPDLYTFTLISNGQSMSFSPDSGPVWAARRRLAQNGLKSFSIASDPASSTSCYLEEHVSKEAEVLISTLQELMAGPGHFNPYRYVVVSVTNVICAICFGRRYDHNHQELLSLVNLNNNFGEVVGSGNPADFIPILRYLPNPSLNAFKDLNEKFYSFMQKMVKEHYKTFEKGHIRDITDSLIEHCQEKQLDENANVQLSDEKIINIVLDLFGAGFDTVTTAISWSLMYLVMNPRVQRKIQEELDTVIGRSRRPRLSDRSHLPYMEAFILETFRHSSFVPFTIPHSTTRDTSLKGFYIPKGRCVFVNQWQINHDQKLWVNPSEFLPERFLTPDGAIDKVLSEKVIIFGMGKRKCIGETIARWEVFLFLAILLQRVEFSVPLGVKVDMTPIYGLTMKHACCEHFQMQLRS
# Test: Inhibition of recombinant CYP1A1 (unknown origin) assessed as residual enzyme activity using 7-ethoxyresorufin as substrate at 10 uM incubated for 15 mins by resorufin dye based spectrofluorimetry (reference value: 100%)
# Type: ADME
# Test Settings: recombinant CYP1A1, probe 7-ethoxyresorufin, read-out: Activity
Attribute: activity at 0.25 h, 10 µM
Use % as the unit, but write only the number.

# annotated cases, reported activity at 0.25 h, 10 µM shown
Input line: Please look at this compound and report its activity at 0.25 h, 10 µM: Cc1cc(C)n(C(=O)CNc2ccccc2Cl)n1
Output line: 98.2

Input line: Give a short answer stating reported activity at 0.25 h, 10 µM for Cc1nn(C[C@@H](O)COc2ccc3c(C)cc(=O)oc3c2)c(C)c1C .
Output line: 96.7

Input line: For the compound C[C@H](Oc1ccc(Cl)cc1)C(=O)Nc1sc2c(c1C(N)=O)CCCC2 , give its reported activity at 0.25 h, 10 µM.
Output line: 98.2

Input line: Tell me its activity at 0.25 h, 10 µM given Cc1ccc(-c2cc(C(N)=O)c3cc(Cl)ccc3n2)o1 as the entry.
Output line: 98.6

As a next step, examine the compound that follows.
Input line: Return activity at 0.25 h, 10 µM (reported value) for this compound: Cc1ccc(-c2cc3cc(F)ccc3[nH]2)cc1N
Output line: 12.8

---

The entries below are paired with their reported activity at 0.25 h, 5 µM.
# Target Under Test: CYP1A1 (Homo sapiens, UniProt P04798)
# Test: Inhibition of recombinant CYP1A1 (unknown origin) assessed as residual enzyme activity using 7-ethoxyresorufin as substrate at 5 uM incubated for 15 mins by resorufin dye based spectrofluorimetry (reference value: 100%)
# Type: ADME
# Test Settings: recombinant CYP1A1, probe 7-ethoxyresorufin, read-out: Activity

The cases that follow already have their activity at 0.25 h, 5 µM on record.
Input line: Kindly indicate its recorded activity at 0.25 h, 5 µM. Item: Cc1cc(C)n2ncc(C(=O)NCc3ccc(Cl)cc3)c2n1
Output line: 71.8%

Input line: For the compound Nc1cc(-c2cc3cc(F)ccc3[nH]2)ccc1F , give its reported activity at 0.25 h, 5 µM.
Output line: 22.4%

Read the next record carefully.
Input line: Quick one: give measured activity at 0.25 h, 5 µM for Cc1sc2[nH]c(CNc3ccc(F)cc3)nc(=O)c2c1C
Output line: 23.9%

---

# Target Under Test: Cytochrome P450 1A1 (Homo sapiens, UniProt P04798)
# Sequence (P04798 whole entry): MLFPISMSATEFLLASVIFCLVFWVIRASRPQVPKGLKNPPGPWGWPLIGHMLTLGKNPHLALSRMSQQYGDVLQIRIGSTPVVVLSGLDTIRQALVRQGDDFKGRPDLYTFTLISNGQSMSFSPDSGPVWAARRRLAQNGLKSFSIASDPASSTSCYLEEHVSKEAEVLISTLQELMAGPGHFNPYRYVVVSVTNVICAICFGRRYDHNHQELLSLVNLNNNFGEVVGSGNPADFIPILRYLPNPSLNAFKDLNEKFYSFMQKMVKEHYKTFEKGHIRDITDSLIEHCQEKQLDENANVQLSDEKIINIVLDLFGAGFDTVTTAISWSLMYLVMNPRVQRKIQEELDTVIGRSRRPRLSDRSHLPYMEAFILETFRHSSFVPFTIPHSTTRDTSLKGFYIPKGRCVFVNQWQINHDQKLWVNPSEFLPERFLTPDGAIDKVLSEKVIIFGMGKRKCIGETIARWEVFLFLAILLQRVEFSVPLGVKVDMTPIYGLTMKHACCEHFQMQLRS
# Test: Inhibition of recombinant CYP1A1 (unknown origin) assessed as decrease in EROD activity using 7-ethoxyresorufin as substrate upto 100 uM incubated for 15 mins by resorufin dye based spectrofluorimetry
# Assay type: ADME
# Test Settings: recombinant enzyme, 0.25 h
Measurement Kind: inhibition (INH)

Some compounds with recorded inhibition (INH):
Input line: Tell me its inhibition (INH) given Cc1cc(C)cc(O[C@H](C)C(=O)Nc2ccc(F)c([N+](=O)[O-])c2)c1 as the entry.
Output line: Not Active

Input line: Fill in inhibition (INH) for record C[C@H](Oc1ccc(Cl)cc1)C(=O)Nc1sc2c(c1C(N)=O)CCCC2
Output line: Not Active

Input line: Look up inhibition (INH) of Cc1nn(C[C@@H](O)COc2ccc3c(C)cc(=O)oc3c2)c(C)c1C and report it.
Output line: Not Active

Input line: Consider the compound NC(=O)c1c(NC(=O)Cc2ccc(F)cc2)sc2c1CCCC2 and give its recorded inhibition (INH).
Output line: Not Active

***
Input line: Fill in inhibition (INH) for record Cc1cc(C)n(C(=O)CNc2ccccc2Cl)n1
Output line: Not Active

Input line: Read the entry Cc1ccc(-c2cc(C(N)=O)c3cc(Cl)ccc3n2)o1 and write its reported inhibition (INH).
Output line: Not Active

---

Below: a set of entries, each annotated with reported growth at 10 µM.
# System: MCF7
# Test: Anticancer activity against human MCF7 cells assessed as cell growth at 10 uM incubated for 48 hrs by SRB assay
# Assay type: functional
# Test Settings: read-out: Activity
Counter-ions that a name gives are not always drawn.
API: value field is a number in %; no unit string.

Would you please look over these solved cases?
Input line: Supply growth at 10 µM value. Item: COc1cccc2c1C(=O)c1c(O)c3c(c(O)c1C2=O)C[C@@](O)(C(=O)CO)C[C@@H]3O[C@H]1C[C@H](N)[C@H](O)[C@H](C)O1 [DOXORUBICIN HYDROCHLORIDE]
Output line: 10.5

Input line: Please look at this compound and report its growth at 10 µM: Cc1cc(C)n(C(=O)CNc2ccccc2Cl)n1
Output line: 77.2

Input line: Let me know recorded growth at 10 µM for Cc1nn(C[C@@H](O)COc2ccc3c(C)cc(=O)oc3c2)c(C)c1C , thanks.
Output line: 69.2

Input line: Entry Nc1cc(-c2cc3cc(F)ccc3[nH]2)ccc1F needs its growth at 10 µM filled in; supply it.
Output line: 55

Input line: Given Cc1sc2[nH]c(CNc3ccc(F)cc3)nc(=O)c2c1C , respond with its growth at 10 µM.
Output line: 84.1

Continuing:
Input line: Please report the measured growth at 10 µM for Cc1ccc(-c2cc(C(N)=O)c3cc(Cl)ccc3n2)o1
Output line: 79

Input line: Please list growth at 10 µM recorded for the compound C[C@H](Oc1ccc(Cl)cc1)C(=O)Nc1sc2c(c1C(N)=O)CCCC2
Output line: 71.7

Input line: Check the records and state growth at 10 µM for NC(=O)c1c(NC(=O)Cc2ccc(F)cc2)sc2c1CCCC2
Output line: 79.3

Input line: Report growth at 10 µM, nothing else, for this compound: Cc1cc(C)cc(O[C@H](C)C(=O)Nc2ccc(F)c([N+](=O)[O-])c2)c1
Output line: 73.5

Input line: # return recorded growth at 10 µM for input Cc1cc(C)n(C(=O)CCn2nc(C)c(Cl)c2C)n1
Output line: 74

Input line: Respond only with growth at 10 µM recorded for Cc1cc(C)n2ncc(C(=O)NCc3ccc(Cl)cc3)c2n1
Output line: 80.4

Input line: Given Cc1ccc(-c2cc3cc(F)ccc3[nH]2)cc1N , respond with its growth at 10 µM.
Output line: 70.9

---

# Target Under Test: CYP1A1 (Homo sapiens, UniProt P04798)
# Sequence (P04798 whole entry): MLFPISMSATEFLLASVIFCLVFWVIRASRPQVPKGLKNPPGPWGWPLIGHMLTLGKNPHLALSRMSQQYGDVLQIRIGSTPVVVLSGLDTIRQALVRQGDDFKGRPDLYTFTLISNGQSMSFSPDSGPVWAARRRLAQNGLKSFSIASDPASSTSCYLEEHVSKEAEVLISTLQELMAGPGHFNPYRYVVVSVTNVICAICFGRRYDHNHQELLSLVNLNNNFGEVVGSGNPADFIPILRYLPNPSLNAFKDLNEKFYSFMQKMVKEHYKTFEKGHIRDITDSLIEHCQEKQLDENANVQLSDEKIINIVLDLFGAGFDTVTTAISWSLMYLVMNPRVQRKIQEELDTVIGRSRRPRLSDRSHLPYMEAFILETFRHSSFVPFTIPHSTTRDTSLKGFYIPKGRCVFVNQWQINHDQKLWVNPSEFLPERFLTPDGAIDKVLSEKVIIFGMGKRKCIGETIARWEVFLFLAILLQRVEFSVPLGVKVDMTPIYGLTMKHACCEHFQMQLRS
# Test: Inhibition of recombinant CYP1A1 (unknown origin) assessed as residual enzyme activity using 7-ethoxyresorufin as substrate at 50 uM incubated for 15 mins by resorufin dye based spectrofluorimetry (reference value: 100%)
# Type: ADME
# Test Settings: recombinant CYP1A1, probe 7-ethoxyresorufin, read-out: Activity
Measurement Kind: activity at 0.25 h, 50 µM (%)
Give the quantity in %, number only.

Recorded results for 3 molecules are shown here.
Input line: Fill in reported activity at 0.25 h, 50 µM for this entry: Cc1cc(C)n2ncc(C(=O)NCc3ccc(Cl)cc3)c2n1
Output line: 64.7

Input line: Tell me measured activity at 0.25 h, 50 µM for NC(=O)c1c(NC(=O)Cc2ccc(F)cc2)sc2c1CCCC2 please.
Output line: 98.1

Input line: Tell us which activity at 0.25 h, 50 µM value is on record for Cc1ccc(-c2cc3cc(F)ccc3[nH]2)cc1N
Output line: 10.6

Now take the following molecule into account.
Input line: Using the record for Cc1sc2[nH]c(CNc3ccc(F)cc3)nc(=O)c2c1C , state its measured activity at 0.25 h, 50 µM.
Output line: 13.5
